# System: KM-20L2
# Measurement Notes: NCI tumour cell line growth inhibition, 48 h
Activity calls are given as the source filed them. No stated cut-off is given here; in the data, active = GI50 up to about 1.1 µM and inactive = higher.
Metric Name: GI50

A selection of reference data follows.
CCN1C(C)=NC2C(=O)c3ccccc3C(=O)C21 (stereo not given)
27.2 µM (inactive)
Cc1cc2c(cc1C)[n+]([O-])c(C(=O)CC(=O)C(=O)Nc1ccccc1C)c(C)[n+]2[O-]
> 100 µM (inactive)
O=[N+]([O-])c1ccc(C2SCc3nc4ccccc4n32)cc1 (stereo not given)
> 100 µM (inactive)

In the following, a different molecule is considered.
Give a short answer stating reported GI50 for CCN(CC)c1c(C(=O)/C=C/c2ccc(F)cc2)c(-c2ccccc2)nn(C)c1=O .
11.8 µM (inactive)

----------
# Tested on: TK-10
# Measurement Notes: NCI tumour cell line growth inhibition, 48 h
Active and inactive are the calls of the source. Rule as the data show it: active = GI50 up to about 1.1 µM and inactive = higher.
Metric Name: GI50

CCOC(=O)/C(=N\OC)C(O)C(F)(F)F (stereo not drawn)
> 100 µM (inactive)

Please turn your attention to the following entry.
Please supply the value of reported GI50 for the item O=C(/C=C/C1C(=O)NC(=O)NC1=O)CC(=O)C(=O)Nc1cc(Cl)c(Cl)cc1Cl
> 100 µM (inactive)

----------
# Tested on: A498
# Measurement Notes: NCI tumour cell line growth inhibition, 48 h
The source made the active and inactive calls. No stated cut-off is given here; in the data, active = GI50 up to about 1.1 µM and inactive = higher.
Tick one outcome: 1 (yes) = active, 0 (no) = inactive

Before answering, review these 5 worked examples.
COC(=O)c1cc2c(cc1O)[C@@H](NC(C)=O)CCc1cc(OC)c(OC)c(OC)c1-2
1 (yes)
COC(=O)/C(=N\O)C(C(=O)C=C(C)C)C(=O)C(=O)Nc1ccccc1C (stereo unspecified)
0 (no)
COc1ccc(C2S/C(=C\c3ccc(O)cc3)C(=O)N2NC(=O)Cc2ccccc2)cc1 (stereo unspecified)
0 (no)
CSC1=N/C(=C\c2ccc(C)cc2)C(=O)N1CN1CCOCC1
0 (no)
O=C(O)/C=N/NC(=S)NC1CCCCC1
0 (no)

Hi, do you know how CCN(CC)c1c(C(=O)/C=C/c2ccc(F)cc2)c(-c2ccccc2)nn(C)c1=O came out in this test?
0 (no)

# lookup: test call for CC(C)N(C(=O)C12C3C4C1C1C4(C#N)C3C12C#N)C(C)C (stereo unspecified)
0 (no)

Outcome? Oc1nc2ccccc2c(O)c1Cc1ccccc1
0 (no)

Dear colleague, could you share the recorded outcome for O=C1C(Cl)=C(Nc2ccc(S(=O)(=O)Nc3ccccn3)cc2)C(=O)c2ccccc21 when you have a moment?
0 (no)

Hi team, can someone confirm the assay call for COc1ccc(C(=O)N(C(=S)OCCOc2ccccc2)c2ccccc2)cc1 ?
0 (no)

Would you mind telling me which call this test gave c1ccc2c(NCCCCCCNc3cccc4ccccc34)cccc2c1 ?
0 (no)

Returns: the outcome recorded for COc1ccc(CC2c3cc(OC)c(OC)c(OC)c3CC[N+]2(C)C)cc1Oc1ccc(CC2c3cc4c(c(OC)c3CCN2C)OCO4)cc1 (stereo unspecified) in this assay.
0 (no)

// return assay outcome for O=[N+]([O-])c1ccc(C2SCc3nc4ccccc4n32)cc1 (stereo unspecified)
0 (no)

For this molecule, state the assay outcome: COc1ccc2c(CCNC(=O)/C=C/c3ccccc3)c(C(C)=O)[nH]c2c1[N+](=O)[O-]
0 (no)

----------
# Tested on: HCT-116
# Measurement Notes: NCI tumour cell line growth inhibition, 48 h
The source made the active and inactive calls. Cut-off read from the data, not from the text of the source: active = GI50 up to about 1.1 µM and inactive = higher.
Recorded GI50, one value per entry.

Completed entries (count: 2):
NC1=NN(c2ccccc2)C(=O)C1C(=O)C(=O)Nc1ccc(Cl)c(Cl)c1 (stereo not given)
> 100 µM (inactive)
Cc1ccc(S(=O)(=O)NC(=O)NC(CCCCN)C(=O)O)cc1 (stereo not given)
> 100 µM (inactive)

Identify measured GI50 corresponding to O[C@@H]1C[C@H]2N3CC[C@@]2(c2cc4c(cc2C3)OCO4)[C@H]2O[C@@H]12
> 100 µM (inactive)

Specify reported GI50 for the compound shown: Cc1c(O)c(=O)ccn1C1OC(CO)C(O)C1O (stereo not given)
62.1 µM (inactive)

Please look at this compound and report its GI50: C=Cc1ccc(C)[n+](C[Si](C)(C)O[Si](C)(C)C)c1
> 100 µM (inactive)
